# key: entry, value: pIC50
tgt: GCN2 (Homo sapiens, UniProt Q9P2K8)
Sequence (Q9P2K8 whole entry): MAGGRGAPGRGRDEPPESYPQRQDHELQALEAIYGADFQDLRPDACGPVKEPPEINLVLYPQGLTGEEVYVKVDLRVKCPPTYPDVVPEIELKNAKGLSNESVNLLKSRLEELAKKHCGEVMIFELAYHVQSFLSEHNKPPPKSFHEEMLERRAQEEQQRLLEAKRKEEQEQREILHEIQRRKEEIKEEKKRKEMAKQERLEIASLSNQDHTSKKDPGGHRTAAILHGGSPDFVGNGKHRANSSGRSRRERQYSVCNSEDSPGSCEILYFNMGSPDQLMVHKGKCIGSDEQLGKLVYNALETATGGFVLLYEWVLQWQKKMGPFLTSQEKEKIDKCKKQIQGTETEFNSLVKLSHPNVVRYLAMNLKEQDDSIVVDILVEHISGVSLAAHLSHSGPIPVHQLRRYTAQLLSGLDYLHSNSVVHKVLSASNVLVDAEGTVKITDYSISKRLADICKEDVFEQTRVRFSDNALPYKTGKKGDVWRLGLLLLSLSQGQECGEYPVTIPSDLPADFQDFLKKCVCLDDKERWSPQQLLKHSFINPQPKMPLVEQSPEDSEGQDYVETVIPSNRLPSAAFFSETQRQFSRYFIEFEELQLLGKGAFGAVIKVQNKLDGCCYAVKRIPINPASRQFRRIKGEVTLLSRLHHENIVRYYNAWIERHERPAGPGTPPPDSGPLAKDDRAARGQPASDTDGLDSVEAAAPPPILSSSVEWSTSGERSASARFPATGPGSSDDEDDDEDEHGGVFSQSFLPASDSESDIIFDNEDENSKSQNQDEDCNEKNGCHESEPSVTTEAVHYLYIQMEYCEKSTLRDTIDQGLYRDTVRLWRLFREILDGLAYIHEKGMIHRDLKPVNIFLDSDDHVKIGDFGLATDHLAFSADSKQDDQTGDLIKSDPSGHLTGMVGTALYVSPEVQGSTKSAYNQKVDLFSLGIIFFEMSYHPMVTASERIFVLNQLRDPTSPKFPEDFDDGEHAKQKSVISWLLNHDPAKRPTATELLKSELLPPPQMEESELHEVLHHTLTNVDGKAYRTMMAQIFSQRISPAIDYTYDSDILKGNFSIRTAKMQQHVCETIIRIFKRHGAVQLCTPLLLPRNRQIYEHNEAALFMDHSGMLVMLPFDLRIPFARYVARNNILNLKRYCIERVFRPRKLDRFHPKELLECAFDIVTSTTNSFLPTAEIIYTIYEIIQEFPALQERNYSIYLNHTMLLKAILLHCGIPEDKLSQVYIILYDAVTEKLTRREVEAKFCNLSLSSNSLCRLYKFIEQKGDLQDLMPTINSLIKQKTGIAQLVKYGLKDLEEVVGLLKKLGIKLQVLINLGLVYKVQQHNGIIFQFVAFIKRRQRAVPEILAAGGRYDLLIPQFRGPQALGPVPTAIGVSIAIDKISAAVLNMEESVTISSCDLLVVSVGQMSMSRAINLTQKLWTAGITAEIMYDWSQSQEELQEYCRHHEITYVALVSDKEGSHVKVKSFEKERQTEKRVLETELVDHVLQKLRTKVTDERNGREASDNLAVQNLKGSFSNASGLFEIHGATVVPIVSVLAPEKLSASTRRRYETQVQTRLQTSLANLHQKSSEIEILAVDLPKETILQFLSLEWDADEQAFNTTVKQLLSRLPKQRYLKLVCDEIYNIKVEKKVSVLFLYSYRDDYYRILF
methodDescription: GCN2 enzyme assay (TR-FRET Lanthascreen, GFP-eIF2alpha substrate)
Type: biochemical
testSettings: 10 μM ATP, 80 nM GFP-eIF2a, 30 nM GCN2
pIC50: −log10 of the molar value.

Example entries begin here.
CN1CCCCn2cc(cn2)Nc2ncc3nnn(c3n2)-c2ccc(cc2)OCCCCC1=O
> 6.00
O=C1CCCOc2ccc(cc2)-n2nnc3cnc(nc32)Nc2cnn(c2)CCCN1
> 6.00
c1cc2ccc1CCNCCCCn1cc(cn1)Nc1ncc3nnn-2c3n1
> 6.00
O=C1CCOc2ccc(cc2)-n2nnc3cnc(nc32)Nc2ccc(cc2)CCCN1
5.00 to 5.30
O=C1CCOc2ccc(cc2)-n2nnc3cnc(nc32)Nc2cnn(c2)CCCN1
> 6.00

# ---- query compound ----
Checklist item: pIC50 tested on GCN2 (Homo sapiens, UniProt Q9P2K8), entry O=C1CCCCOc2ccc(cc2)Nc2ncc3nnn(c3n2)-c2cnn(c2)CCCN1 , value?
> 6.00

----------
# key: entry, value: pIC50
tgt: GCN2 (Homo sapiens)
methodDescription: GCN2 enzyme assay (TR-FRET Lanthascreen, GFP-eIF2alpha substrate)
Assay type: biochemical
testSettings: 10 μM ATP, 80 nM GFP-eIF2a, 30 nM GCN2
pIC50: −log10 of the molar value.

Example entries begin here.
O=C1CCn2cc(cn2)-n2nnc3cnc(nc32)Nc2ccc(cc2)OCCCCN1
5.00 to 5.30
O=C1CCCOc2ccc(cc2)-n2cnc3cnc(nc32)Nc2cnn(c2)CCCN1
> 6.00
O=C1CCn2cc(cn2)-n2nnc3cnc(nc32)Nc2cccc(c2)OCCCN1
> 6.00

# ---- query compound ----
Checklist item: pIC50 tested on GCN2 (Homo sapiens), entry O=C1CCCCOc2ccc(cc2)-n2nnc3cnc(nc32)Nc2cnn(c2)CCCN1 , value?
> 6.00

----------
# key: entry, value: IC50
tgt: GCN2 (Homo sapiens)
methodDescription: GCN2 enzyme assay (TR-FRET Lanthascreen, GFP-eIF2alpha substrate)
Format: biochemical
testSettings: 10 μM ATP, 80 nM GFP-eIF2a, 30 nM GCN2

What IC50 value was documented for this compound, c1nn2cc1Nc1ncc3nnn(c3n1)-c1ccc(cc1)OCCNCCC2 [Compound A10] ?
< 1000 nM

What IC50 value was documented for this compound, O=C1CCCOc2ccc(cc2)-n2cnc3cnc(nc32)Nc2cnn(c2)CCCO1 [Compound A20] ?
1000 to 5000 nM

----------
# key: entry, value: pIC50
tgt: GCN2 (Homo sapiens)
methodDescription: GCN2 enzyme assay (TR-FRET Lanthascreen, GFP-eIF2alpha substrate)
Assay type: biochemical
testSettings: 10 μM ATP, 80 nM GFP-eIF2a, 30 nM GCN2
pIC50: −log10 of the molar value.

Example entries begin here.
O=C1CCCn2cc(cn2)Nc2ncc3nnn(c3n2)-c2cnn(c2)CCCN1
> 6.00
O=C1CCCOc2ccc(cc2)-n2nnc3cnc(nc32)Nc2cnn(c2)CCN2CCN(CCCN1)CC2
> 6.00
O=C1CCCOc2ccc(cc2)-n2nnc3cnc(nc32)Nc2ccc(cc2)OCCCCN1
> 6.00
O=C1CCn2cc(cn2)-n2nnc3cnc(nc32)Nc2ccc(cc2)OCCCN1
5.00 to 5.30
O=C1CCCOc2ccc(cc2)-n2cnc3cnc(nc32)Nc2ccc(cc2)OCCCN1
> 6.00
O=C1CCCCOc2ccc(cc2)-n2cnc3cnc(nc32)Nc2ccc(cc2)CCCN1
> 6.00

What pIC50 value was documented for this molecule, O=C1CCCCOc2ccc(cc2)-n2cnc3cnc(nc32)Nc2ccc(cc2)OCCCN1 ?
> 6.00

What pIC50 value was documented for this molecule, O=C1CCCCOc2ccc(cc2)-n2nnc3cnc(nc32)Nc2cnn(c2)CCC2CCN1CC2 ?
5.30 to 6.00

What pIC50 value was documented for this molecule, O=C1CCCOc2ccc(cc2)-n2cnc3cnc(nc32)Nc2ccc(cc2)CCCN1 ?
> 6.00

What pIC50 value was documented for this molecule, O=C1CCCn2cc(cn2)Nc2ncc3nnn(c3n2)-c2ccc(cc2)OCCCN1 ?
> 6.00

What pIC50 value was documented for this molecule, O=C1COc2ccc(cc2)-n2nnc3cnc(nc32)Nc2cnn(c2)CCCN1 ?
5.30 to 6.00

What pIC50 value was documented for this molecule, O=C1CCCOc2ccc(cc2)-n2nnc3cnc(nc32)Nc2ccc(cc2)CCCN1 ?
5.30 to 6.00

What pIC50 value was documented for this molecule, O=C1CCCOc2ccc(cc2)-n2nnc3cnc(nc32)Nc2cccc(c2)OCCCN1 ?
> 6.00

What pIC50 value was documented for this molecule, O=C1CCCn2cc(cn2)Nc2ncc3nnn(c3n2)-c2ccc(cc2)CN1 ?
5.30 to 6.00

What pIC50 value was documented for this molecule, O=C1CCCc2ccc(cc2)Nc2ncc3ncn(c3n2)-c2ccc(cc2)OCCCCN1 ?
5.30 to 6.00
